Tested on: HEK293T cells
Experiment: Cell viability assay (Cell Titer Glo)
Format: cell-based, human
Conditions: 24 hours, read-out: cytotoxicity IC50
measurement-kind: pIC50
# reply with the number alone; pIC50 is -log10 of concentration in mol/L

Exercise: Need pIC50, item COc1ccc2c(c1)CCCN2C(=O)CCl [KB02, reference compound]
Solution: 4.64
